Measured MFI at 25 nM by item
Molecular target: T1, CD226 (human) (UniProt Q15762)
T1 sequence: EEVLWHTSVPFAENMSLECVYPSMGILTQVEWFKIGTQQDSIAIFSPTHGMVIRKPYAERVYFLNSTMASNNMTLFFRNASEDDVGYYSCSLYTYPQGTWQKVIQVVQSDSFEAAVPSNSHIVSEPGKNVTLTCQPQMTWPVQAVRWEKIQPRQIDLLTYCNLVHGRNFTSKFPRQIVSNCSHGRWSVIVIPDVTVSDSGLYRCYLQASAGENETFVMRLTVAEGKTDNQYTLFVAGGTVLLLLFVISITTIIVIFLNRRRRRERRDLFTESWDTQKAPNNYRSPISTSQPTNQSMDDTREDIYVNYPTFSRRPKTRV
Assay: flow cytometry, cells expressing target, 25 nM
The answer is to be given in MFI; state only the numeric part.

# input Read off the recorded MFI at 25 nM for CD155 variant IgV-Fc P18T, D23G, Q60R, S67L, L79P, F91S, T107M, V115A (Fc fusion, not shown: a dimerising Fc or GST; small tags and cut ends) PGTGDVVVQAPTQVTGFLGGSVTLPCYLQVPNMEVTHVSQLTWARHGESGSMAVFHRTQGPSYLESKRLEFVAARPGAELRNASLRMSGLRVEDEGNYTCLFVMFPQGSRSADIWL
# output 30900

# input Read off the recorded MFI at 25 nM for CD155 variant IgV-Fc V9L, P18F, T45A, S65A, S67V, R78K, L79V, F91S, T107M, S114T (Fc fusion, not shown: a dimerising Fc or GST; small tags and cut ends) PGTGDLVVQAPTQVFGFLGDSVTLPCYLQVPNMEVTHVSQLAWARHGESGSMAVFHQTQGPAYVESKRLEFVAAKVGAELRNASLRMSGLRVEDEGNYTCLFVMFPQGSRTVDIWL
# output 154000

# input Read off the recorded MFI at 25 nM for CD155 variant IgV-Fc P18S, H59R, A76G, R78S, L79P (Fc fusion, not shown: a dimerising Fc or GST; large carriers; small tags and cut ends) PGTGDVVVQAPTQVSGFLGDSVTLPCYLQVPNMEVTHVSQLTWARHGESGSMAVFRQTQGPSYSESKRLEFVGASPGAELRNASLRMFGLRVEDEGNYTCLFVTFPQGSRSVDIWL
# output 79400

# input Read off the recorded MFI at 25 nM for CD155 variant IgV-Fc T15S, P18S, Y30H, Q32L, Q62R, L79P, F91S, T107M (Fc fusion, not shown: a dimerising Fc or GST; small tags and cut ends) PGTGDVVVQAPSQVSGFLGDSVTLPCHLLVPNMEVTHVSQLTWARHGESGSMAVFHQTRGPSYSESKRLEFVAARPGAELRNASLRMSGLRVEDEGNYTCLFVMFPQGSRSVDIWL
# output 2090
